Overview of recorded apparent KD of K4 kissing-loop reporter for various sequences
Tested on: K4 kissing-loop RNA reporter;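 further: bound reporter read as fluorescence of individual clusters on recovered sequencing chips by microscopy, with normalized cluster intensities fitted with a binding model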
Assay: apparent KD of K4 kissing-loop reporter; higher = weaker reporter binding
Details: Eterna round: R107; input ligand: none

- Sequence Code: "GCCAGUGAUGUUGGCAUUUCGAGCCAUGAAGGAGCGCACGGAAGUGCAGGUAGGUCGCAUGGUACUUAGGAUAUUACCCUAAGUA [Isterare]"
  apparent KD of K4 kissing-loop reporter: "212 nM"
- Sequence Code: "CCAUCGCUGUUCGAUACCAGUCAUUUUUUAUUUUAUUUUUUUUUUGGAGUGAUGUUCCAAGACCCUUGGCAGCGGAUAGUGAUGG [whbob_SS_Theo_B_th80]"
  apparent KD of K4 kissing-loop reporter: "114 nM"
- Sequence Code: "CCAUCGCUAUUCGAUACCAGUCAUUAAAUCUUUGGUUUAAUAAAGGAGUGAUGUUCCCAAGACCCUUGGCAGCGAAUAGUGAUGG [Theophylline B K4 9]"
  apparent KD of K4 kissing-loop reporter: "198 nM"
